This section presents molecules with their documented IC50 values.
- system: UniProt:A8MUK1
- Sequence (A8MUK1 whole entry, looked up): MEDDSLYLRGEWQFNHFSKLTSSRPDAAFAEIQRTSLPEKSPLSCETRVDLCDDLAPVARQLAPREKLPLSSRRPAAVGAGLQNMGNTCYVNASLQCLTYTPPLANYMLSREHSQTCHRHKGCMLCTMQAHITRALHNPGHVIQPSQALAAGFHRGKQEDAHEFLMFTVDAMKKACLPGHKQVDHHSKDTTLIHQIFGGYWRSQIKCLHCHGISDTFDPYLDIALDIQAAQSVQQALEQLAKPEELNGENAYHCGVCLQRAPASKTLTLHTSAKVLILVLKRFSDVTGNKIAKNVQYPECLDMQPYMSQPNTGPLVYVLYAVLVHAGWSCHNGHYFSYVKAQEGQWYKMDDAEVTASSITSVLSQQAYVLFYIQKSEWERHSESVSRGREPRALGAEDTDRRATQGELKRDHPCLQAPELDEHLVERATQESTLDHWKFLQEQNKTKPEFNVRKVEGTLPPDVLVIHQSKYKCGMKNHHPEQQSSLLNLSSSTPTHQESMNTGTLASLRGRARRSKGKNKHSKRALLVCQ
- testProtocol: ubiquitin-specific protease 17 DUB inhibitors, concentration-effect assay, cell-free, verification of initial screening actives (AID 1645864)
- testContext: purified USP17, ubiquitin-rhodamine cleavage fluorescence, 3 h
Activity calls are given as the source filed them.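 How the source made its calls: active means maximal inhibition of USP17 at or above 30% in the confirmation dose-response, a value not among the printed readouts; inactive means the rest.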
observationType: IC50

molecule	observationType	value
COC1/C=C/OC2(C)Oc3c(C)c(O)c4c(c3C2=O)C(=O)C=C(NC(=O)/C(C)=C\C=C\C(C)C(O)C(C)C(O)C(C)C(OC(C)=O)C1C)C4=O (stereo not drawn)	IC50	18.7 µM
C[C@@H]1OC2=C(C(=O)c3cccc(O)c3C2=O)[C@H](O)[C@@H]1O	IC50	0.31 µM
Cc1ccc(CN2CCCn3nc(C(=O)NCc4ccccc4C)cc3C2=O)cc1	IC50	40.1 µM
O=C(c1cccnc1)N1CCC2(CC1)CC1(CO2)Nc2ccccc2-n2cccc21 (stereo not drawn)	IC50	21.4 µM
O=[N+]([O-])c1ccccc1C(c1c[nH]c2ccccc12)c1c[nH]c2ccccc12	IC50	24.6 µM
COc1ccccc1/C=C/C(=O)Nc1nc2n(n1)C(c1ccc(Cl)cc1)CC(=O)N2 (stereo not drawn)	IC50	> 50 µM (inactive)
CN(C)c1cccc(C(=O)Nc2cc(-c3cccnc3)no2)c1	IC50	26.9 µM
CO[C@H]1[C@@H](O)[C@H](C)O[C@H](O[C@H]2[C@H](Oc3cccc4c(O)c5c(=O)oc6ccc(C)c7c(=O)oc(c34)c5c67)O[C@H](C)[C@H](O)[C@@H]2O)[C@@H]1O	IC50	> 50 µM (inactive)

src = PubChem BioAssay AID1645864
